The following compounds were reported with Ki values on Serine/threonine-protein kinase pim-1 (Homo sapiens) in different studies.
Please give a number only; it is taken to be in pM.

Fc1cccc(-c2n[nH]c3cnc(-c4cccnc4)cc23)n1; 13100
Cn1ncc(NC(=O)c2nc(-c3c(F)ccc(C4CC4)c3F)sc2N)c1N1CCC[C@@H](N)CC1; 15
COc1ccc(-c2nc(C(=O)Nc3cnccc3N3CCC[C@H](N)C3)c(N)s2)c(F)c1; 709
Cn1cc(-c2cc3c(-c4ccc(Br)c(N5CC(N6CCNC(=O)C6)C5)n4)n[nH]c3cn2)cn1; 527
Nc1sc(-c2cc(Cl)ccc2F)nc1C(=O)Nc1cnccc1N1CCC[C@H](N)C1; 34

From here, focus on the item given below.
The reported Serine/threonine-protein kinase pim-1 (Homo sapiens) Ki of "Cn1cc(-c2cc3c(-c4cccc(N5CCNCC5)n4)n[nH]c3cn2)cn1" is 36

###

The following compounds were reported with log10 of Ki values on Serine/threonine-protein kinase pim-1 (Homo sapiens, UniProt P11309) in different studies.
Record value = log10 of Ki given in nM.

Cn1ncc(NC(=O)c2csc(-c3cnccn3)n2)c1[C@@H]1CC[C@@H](N)[C@H](F)CO1; -1.02
Nc1sc(-c2ccc(Cl)cc2)nc1C(=O)Nc1cnccc1N1CCC[C@H](N)C1; -0.76
Cn1ncc(NC(=O)c2nc(-c3ccccc3F)cnc2N)c1N1CCC(N)CC(F)(F)C1 (racemic); -1.64
Cn1ncc(NC(=O)c2nc(-c3cc(C#N)ccc3F)sc2N)c1N1CC[C@@H](N)[C@H](F)CC1; 0.03
Nc1sc(-c2cc(F)ccc2F)nc1C(=O)Nc1cnn(C2CC2)c1N1CCC(N)C(F)CC1 (stereo not shown); -0.80
Cc1ccncc1-c1nc(C(=O)Nc2cnn(C)c2N2CC[C@@H](N)[C@H](F)CC2)c(N)s1; -0.05
Cn1ncc(NC(=O)c2csc(-c3c(F)cc4c(c3F)OCC[C@H]4O)n2)c1[C@@H]1CC[C@@H](N)[C@H](F)CO1; -2.40
N#Cc1cc2c(-c3cccc(N4CCC[C@@H](N)C4)n3)n[nH]c2cn1; 1.59
CCn1cc(-c2cc3c(-c4ccc(=O)n(CC5(C(N)=O)CCC5)c4)n[nH]c3cn2)cn1; 0.65
Cc1ccc(-c2n[nH]c3cnc(-c4cccnc4)cc23)nc1F; 0.68

Recorded result, "Nc1sc(-c2c(F)cccc2F)nc1C(=O)Nc1cnccc1N1CCNCC1" , log10 of Ki: -0.30

Recorded result, "Cn1cc(-c2cc3c(-c4ccc(Br)c(N5CCOCC5)n4)n[nH]c3cn2)cn1" , log10 of Ki: -0.72

###

The following molecules were reported with Ki values on Serine/threonine-protein kinase pim-1 (Homo sapiens) in different studies.
# if measured Ki < 0.3 nM: yes  # else: no

O=C1N(CC2CCNCC2)CCN1c1n[nH]c2cnc(-c3cccnc3)cc12; no
N[C@H]1CCN(c2cncc(-c3cc4c(-c5ccccc5F)n[nH]c4cn3)c2)C1; yes
N[C@@H]1CCCN(c2cccc(-c3n[nH]c4cnc(-n5ccnc5)cc34)n2)C1; no

Query block: Please state whether Ki is below 0.3 nM for "CCn1cc(-c2cc3c(-c4cccc(N5CCNC(C)(C)C5)n4)n[nH]c3cn2)cn1"
Result block: yes

Query block: Please state whether Ki is below 0.3 nM for "Cn1ncc(NC(=O)c2nc(-c3c(F)cccc3F)sc2N)c1OCC1CCNCC1"
Result block: no

Query block: Please state whether Ki is below 0.3 nM for "Cc1n[nH]c2cnc(-c3cnn(C4COC4)c3)cc12"
Result block: no

Query block: Please state whether Ki is below 0.3 nM for Cn1ncc(NC(=O)c2nc(-c3c(F)cccc3F)sc2N)c1N1CCNCC(C#N)C1 (centres unmarked)
Result block: no

Query block: Please state whether Ki is below 0.3 nM for "OC1CCN(c2nc(-c3n[nH]c4cnc(-c5cccnc5)cc34)ccc2Br)CC1"
Result block: yes
